// provenance: patent US11530223B2

Experiment: IV pharmacokinetics
Format: in vivo
Conditions: Sprague Dawley, rat, in vivo, iv, 2 mg/kg, Sprague Dawley rats, read-out: Vss
endpointLabel: Vd
Be sure to follow the number with its unit.

Q: Quick one: Vd of O=C1NCCC12CCCNC2 (centres unmarked) [RB-1, 2,7-diazaspiro[4.5]decan-1-one] ?
Result: 2.79 L/kg

Q: Same question for CC(C)C(=O)N1CCC2(CCNC2=O)CC1 [RG-623] please.
Result: 0.56 L/kg

Q: Same question for CC(C)(C)OC(=O)N1CCCCC12CCNC2=O (centres unmarked) [RG-605] please.
Result: 0.53 L/kg

Q: Same question for CC(=O)N1CCC2(CCNC2=O)CC1 [RG-621] please.
Result: 0.52 L/kg

Q: Same question for O=C1NCCC12CCNCC2 [RG-603] please.
Result: 0.81 L/kg

Q: Same question for O=C1NCCC12CCCCN2 (centres unmarked) [RG-601] please.
Result: 1.14 L/kg

Q: Same question for CC(C)C(=O)N1CCCC12CCNC2=O (centres unmarked) [RZ-405] please.
Result: 0.69 L/kg

Q: Same question for CC(C)(C)OC(=O)N1CCCC12CCNC2=O (single isomer, unassigned) [RM-1] please.
Result: 0.91 L/kg
